Catalogue of compounds with associated pIC50
target: Nonstructural protein 3 (Zika virus); assay: Functional biochemical assay to identify treatments for viral infectious disease that targets Zika NS2B-NS3 protease. Utilizing a direct enzyme activity measurement method, reading the fluorescence intensity is used to characterize the relative potency of inhibitors as IC50.; design: species or system PRVABC59
Sequence (A0A024AXB9 whole entry): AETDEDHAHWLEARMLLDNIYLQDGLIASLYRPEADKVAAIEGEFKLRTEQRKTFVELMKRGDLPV
pIC50: −log10 of the molar value.
experimental.endpoint: pIC50

[[record]]
compound_smiles = "NCc1cccc(NC(=O)c2cc(F)cc(NC(=O)OCc3ccccc3)c2F)c1"
prefix_operator = "="
measurement = 4.13

[[record]]
compound_smiles = "Cn1cc2c(C(=O)Nc3ccc4c(c3)CNC4)cccc2n1"
prefix_operator = "="
measurement = 5.95

[[record]]
compound_smiles = "COc1cc(-c2cc(Cl)cc(NC(=O)OCc3ccccc3)c2)c(OC)cc1CC(=O)O"
prefix_operator = "="
measurement = 4.03

[[record]]
compound_smiles = "CN(C)CC[C@H](NC(=O)c1cc(Cl)cc(NC(=O)OCc2ccccc2)c1)c1ccccc1"
prefix_operator = "<"
measurement = 4.00

[[record]]
compound_smiles = "CC[C@H](Cc1nnn[nH]1)c1ccc(NC(=O)c2cc(Cl)cc3[nH]ncc23)cc1"
prefix_operator = "<"
measurement = 4.00

[[record]]
compound_smiles = "O=C1Cc2c(C(=O)Nc3ccc4c(c3)CNC4)ccnc2N1"
prefix_operator = "="
measurement = 4.64

[[record]]
compound_smiles = "CCc1cc(C(=O)Nc2cccc(CN)c2)sc1-c1ccc(Cl)cc1"
prefix_operator = "="
measurement = 5.05

[[record]]
compound_smiles = "NCc1cc(-c2ccncc2)cc([C@@H]2C[C@H]2c2cc(Cl)cc(NC(=O)OCc3ccccc3)c2)c1"
prefix_operator = "="
measurement = 4.91

[[record]]
compound_smiles = "CC(=O)NCc1cccc(NC(=O)c2cc(Cl)cc(NC(=O)OCc3ccccc3)c2)c1"
prefix_operator = "<"
measurement = 4.00

[[record]]
compound_smiles = "COCCNC(=O)[C@H](Nc1cccc(-c2nn[nH]n2)c1)c1cc(Cl)cc(NC(=O)OCc2ccccc2)c1"
prefix_operator = "<"
measurement = 4.00

[[record]]
compound_smiles = "O=C(Nc1ccc2c(c1)B(O)OC2)c1cccc(OCc2c(Cl)cccc2Cl)c1"
prefix_operator = "<"
measurement = 4.00

[[record]]
compound_smiles = "Cc1nc2c(C(=O)Nc3ccc4c(c3)CNC4)cccc2[nH]1"
prefix_operator = "="
measurement = 5.44

[[record]]
compound_smiles = "CC(C)Oc1ccccc1C(=O)N[C@H](C(=O)Nc1cccc(CN)c1)c1ccc(OCc2ccccc2)cc1"
prefix_operator = "="
measurement = 4.46

[[record]]
compound_smiles = "c1ccc2c(CN3CCCCC3)c[nH]c2c1"
prefix_operator = "<"
measurement = 4.00

[[record]]
compound_smiles = "O=C(Nc1cc(-c2cccnc2)ccn1)c1cc2n(n1)CC1(CC1)C2"
prefix_operator = "<"
measurement = 4.60

[[record]]
compound_smiles = "c1cc([C@@H]2C[C@H]2c2ccc3c(c2)CNC3)c2cn[nH]c2c1"
prefix_operator = "<"
measurement = 4.60

[[record]]
compound_smiles = "CCCC[C@H](N)C(=O)N[C@@H](C(=O)NCc1ccc(C(N)=O)cc1)c1ccc(OCc2ccccc2)cc1"
prefix_operator = "<"
measurement = 4.00

[[record]]
compound_smiles = "O=C(Nc1ccc2c(c1)CNC2)c1cccc2[nH]ccc12"
prefix_operator = "="
measurement = 6.55

[[record]]
compound_smiles = "c1ccc(-c2csc(C3CCN(Cc4c[nH]c5ccccc45)CC3)n2)cc1"
prefix_operator = "="
measurement = 4.65

[[record]]
compound_smiles = "NCc1cccc(NC(=O)[C@H](NS(=O)(=O)c2cccnc2)c2ccc(OCc3ccccc3)cc2)c1"
prefix_operator = "<"
measurement = 4.00

[[record]]
compound_smiles = "CCc1onc(-c2ccc(Br)cc2)c1C(=O)Nc1cccc(CN)c1"
prefix_operator = "<"
measurement = 4.00

